Biological target: hENPP2 (UniProtKB/SwissProt Sequence ref Q13822) (Homo sapiens (Human), UniProt Q13822)
Test: LPC hENPP2 assay (choline release, LPC as substrate)
Format: biochemical
pIC50: −log10 of the molar value.
OBSERVATION_TYPE: pIC50

Completed entries (count: 3):
COMPOUND: CCc1nc2ccc(N3C[C@H]4C[C@H]3CN4S(C)(=O)=O)nn2c1N(C)c1nc(-c2ccc(F)cc2)cs1
pIC50: < 6.00

COMPOUND: CCc1nc2ccc(N3CCN(CC(=O)N4CCOCC4)[C@H](CO)C3)nn2c1N(C)c1nc(-c2ccc(F)cc2)cs1
pIC50: 6.30 to 7.00

COMPOUND: CCc1nc2ccc(N3CCC(N4CCC(O)CC4)C3)nn2c1N(C)c1nc(-c2ccc(F)cc2)cs1 (centres unmarked)
pIC50: 6.00 to 6.30

What value of pIC50 has been recorded for this entry: CCc1nc2ccc(C3CCN(S(C)(=O)=O)CC3)nn2c1N(C)c1nc(-c2ccc(F)cc2C#N)c(CO)s1 6.00 to 6.30

Look up pIC50: CCc1nc2ccc(N3CC4CN(S(=O)(=O)CCCN(C)C)CC4C3)nn2c1N(C)c1nc(-c2ccc(F)cc2)cs1 (centres unmarked) 6.00 to 6.30

This collection of values is drawn from patent US9796719B2.
